Target: rat α6/α3β4 nAChR (Rattus norvegicus, UniProt P04757+P12392+P43143)
Sequence (P04757 whole entry, looked up): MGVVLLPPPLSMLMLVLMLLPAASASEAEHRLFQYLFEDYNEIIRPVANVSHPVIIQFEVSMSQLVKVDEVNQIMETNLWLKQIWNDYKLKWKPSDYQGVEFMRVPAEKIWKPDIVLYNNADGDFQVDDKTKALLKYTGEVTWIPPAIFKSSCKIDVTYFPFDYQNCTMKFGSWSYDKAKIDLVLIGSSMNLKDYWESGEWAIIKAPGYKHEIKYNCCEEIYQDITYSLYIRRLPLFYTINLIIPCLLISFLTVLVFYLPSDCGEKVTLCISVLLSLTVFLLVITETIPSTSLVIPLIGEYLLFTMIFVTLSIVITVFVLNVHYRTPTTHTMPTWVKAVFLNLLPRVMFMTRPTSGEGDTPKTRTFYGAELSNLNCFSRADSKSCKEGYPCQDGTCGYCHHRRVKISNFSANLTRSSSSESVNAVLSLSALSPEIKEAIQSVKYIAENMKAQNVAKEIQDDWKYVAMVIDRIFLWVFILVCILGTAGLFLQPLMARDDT
Sequence (P12392 whole entry, looked up): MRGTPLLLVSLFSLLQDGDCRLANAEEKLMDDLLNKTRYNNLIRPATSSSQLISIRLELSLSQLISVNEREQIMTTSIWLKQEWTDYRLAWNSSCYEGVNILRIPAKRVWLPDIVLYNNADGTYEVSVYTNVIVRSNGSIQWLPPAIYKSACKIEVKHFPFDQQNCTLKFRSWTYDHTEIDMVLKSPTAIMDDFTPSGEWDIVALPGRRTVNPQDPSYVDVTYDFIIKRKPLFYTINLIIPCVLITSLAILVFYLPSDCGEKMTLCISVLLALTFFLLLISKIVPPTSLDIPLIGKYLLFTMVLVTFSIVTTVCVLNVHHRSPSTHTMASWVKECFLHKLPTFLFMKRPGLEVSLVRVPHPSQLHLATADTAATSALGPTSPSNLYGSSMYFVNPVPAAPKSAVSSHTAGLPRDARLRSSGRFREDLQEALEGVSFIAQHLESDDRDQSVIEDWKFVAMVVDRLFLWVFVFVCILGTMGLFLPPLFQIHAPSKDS
Sequence (P43143 whole entry, looked up): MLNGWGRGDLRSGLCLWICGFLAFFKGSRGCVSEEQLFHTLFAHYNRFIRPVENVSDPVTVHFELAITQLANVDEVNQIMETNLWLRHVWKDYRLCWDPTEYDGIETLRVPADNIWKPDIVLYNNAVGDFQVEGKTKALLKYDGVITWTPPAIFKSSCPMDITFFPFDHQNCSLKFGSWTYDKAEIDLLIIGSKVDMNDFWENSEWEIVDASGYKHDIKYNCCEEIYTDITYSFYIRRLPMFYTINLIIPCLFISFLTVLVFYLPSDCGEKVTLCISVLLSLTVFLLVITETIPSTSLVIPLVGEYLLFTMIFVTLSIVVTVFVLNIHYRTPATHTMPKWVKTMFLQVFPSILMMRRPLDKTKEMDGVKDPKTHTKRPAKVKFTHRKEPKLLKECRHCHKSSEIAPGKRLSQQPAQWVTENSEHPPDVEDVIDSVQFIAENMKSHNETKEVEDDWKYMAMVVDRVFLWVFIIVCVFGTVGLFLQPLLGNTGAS
Assay: cell-based
Peptide text beside a SMILES is read from it.
Value Kind: α6/α3β4 IC50 ratio
Note: the reply should be a number with no unit written.

Lookup: Given CSCC[C@@H]1NC(=O)[C@H](C)NC(=O)[C@H](CO)NC(=O)[C@@H]2CSSC[C@H](NC(=O)CN)C(=O)N[C@@H](CSSC[C@@H](C(N)=O)NC(=O)[C@H](Cc3ccc(O)cc3)NC(=O)[C@@H]3CCCN3C(=O)[C@H](CO)NC1=O)C(=O)N[C@@H](CO)C(=O)N[C@@H](Cc1c[nH]cn1)C(=O)N1CCC[C@H]1C(=O)N[C@@H](C(C)C)C(=O)N2 [TxID[I14Y]] (HELM PEPTIDE1{G.C.C.S.H.P.V.C.S.A.M.S.P.Y.C.[am]}$PEPTIDE1,PEPTIDE1,2:R3-8:R3|PEPTIDE1,PEPTIDE1,3:R3-15:R3$$$V2.0) , report its α6/α3β4 IC50 ratio on rat α6/α3β4 nAChR (Rattus norvegicus, UniProt P04757+P12392+P43143).
Found: 1.1
